biological target: Alpha-glucosidase (Saccharomyces cerevisiae S288c, UniProt P53341+P38158+P07265); experiment: Inhibition of alpha-glucosidase using 4-Nitrophenyl-[…]-D-glucopyranoside (pNPG) as substrate; assay type: protein assay
PROPERTY_NAME: IC50

Inquiry: Record request: IC50 value, item COc1ccc(-n2cc(CNC(=O)COC(=O)[C@]34CCC(C)(C)C[C@H]3C3=CC[C@@H]5[C@@]6(C)CC[C@H](O)C(C)(C)[C@@H]6CC[C@@]5(C)[C@]3(C)C[C@H]4O)nn2)cc1
Reply text: > 30 µM

Inquiry: Repeat with COc1cc(-n2cc(CNC(=O)[C@]34CCC(C)(C)C[C@H]3C3=CC[C@@H]5[C@@]6(C)CC[C@H](O)C(C)(C)[C@@H]6CC[C@@]5(C)[C@]3(C)C[C@H]4O)nn2)cc(OC)c1OC
Reply text: > 30 µM

Inquiry: Try the compound CC1(C)CC[C@]2(C(=O)NCc3cn(-c4ccc(F)cc4)nn3)[C@H](O)C[C@]3(C)C(=CC[C@@H]4[C@@]5(C)CC[C@H](O)C(C)(C)[C@@H]5CC[C@]43C)[C@@H]2C1
Reply text: > 30 µM

src = ChEMBL document CHEMBL6109087
